pIC50: −log10 of the molar value.
Endpoint: pIC50. System: human P450 3A4 (Homo sapiens, UniProt P08684). Items follow.
Sequence (P08684 whole entry): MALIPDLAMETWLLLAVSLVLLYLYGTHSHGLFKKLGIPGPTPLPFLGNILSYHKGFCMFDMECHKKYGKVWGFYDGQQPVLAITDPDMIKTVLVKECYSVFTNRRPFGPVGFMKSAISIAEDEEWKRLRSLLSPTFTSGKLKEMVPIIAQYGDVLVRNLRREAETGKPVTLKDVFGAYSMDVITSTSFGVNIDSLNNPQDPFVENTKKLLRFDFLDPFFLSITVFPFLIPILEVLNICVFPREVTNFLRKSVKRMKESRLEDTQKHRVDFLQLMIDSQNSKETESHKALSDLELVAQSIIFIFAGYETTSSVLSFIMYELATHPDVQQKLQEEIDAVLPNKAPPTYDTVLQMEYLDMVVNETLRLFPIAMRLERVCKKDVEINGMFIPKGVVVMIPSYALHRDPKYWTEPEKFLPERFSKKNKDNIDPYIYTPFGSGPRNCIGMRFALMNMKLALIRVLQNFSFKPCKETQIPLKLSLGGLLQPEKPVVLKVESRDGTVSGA
measurement_label: pIC50

[[record]]
molecule = "O=c1c(O)c(-c2ccccc2)oc2cc(O)cc(O)c12 [357THF, 3,5,7-trihydroxyflavone]"
measured_target = "human P450 3A4 (Homo sapiens, UniProt P08684)"
measurement_label = "pIC50"
comparison_symbol = "="
obs_value = 5.64

[[record]]
molecule = "COc1ccccc1-c1cc(=O)c2c(O)cc(O)cc2o1 [2’M57DHF, 2’-methoxy-5,7-dihydroxyflavone]"
measured_target = "human P450 3A4 (Homo sapiens, UniProt P08684)"
measurement_label = "pIC50"
comparison_symbol = "="
obs_value = 5.70

[[record]]
molecule = "O=c1cc(-c2ccccc2)oc2cc(O)ccc12 [7HF, 7-hydroxyflavone]"
measured_target = "human P450 3A4 (Homo sapiens, UniProt P08684)"
measurement_label = "pIC50"
comparison_symbol = "<"
obs_value = 4.00

[[record]]
molecule = "O=c1cc(-c2ccccc2)oc2cccc(O)c12 [5HF, 5-hydroxyflavone]"
measured_target = "human P450 3A4 (Homo sapiens, UniProt P08684)"
measurement_label = "pIC50"
comparison_symbol = "<"
obs_value = 4.00

[[record]]
molecule = "O=c1cc(-c2ccccc2)oc2c1ccc1ccccc12"
measured_target = "human P450 3A4 (Homo sapiens, UniProt P08684)"
measurement_label = "pIC50"
comparison_symbol = "="
obs_value = 4.74

[[record]]
molecule = "COc1ccc(-c2cc(=O)c3ccc(O)c(O)c3o2)cc1OC [3’4’DM78DHF, 3’,4’-dimethoxy-7,8-dihydroxyflavone]"
measured_target = "human P450 3A4 (Homo sapiens, UniProt P08684)"
measurement_label = "pIC50"
comparison_symbol = "<"
obs_value = 4.00


---

measured_target: human P450 3A4 (Homo sapiens)
assay_text: Inhibition of P450 3A4-dependent midazolam 4-hydroxylation
measurement_label: inhibition of P450 3A4 midazolam 4-hydroxylation, in words

[[record]]
compound = "COc1ccc(-c2cc(=O)c3c(O)cc(O)cc3o2)cc1 [4’M57DHF, 4’-methoxy-5,7-dihydroxyflavone]"
obs_value = "significantly inhibited"

[[record]]
compound = "O=c1c(O)c(-c2ccccc2)oc2cc(O)cc(O)c12 [357THF, 3,5,7-trihydroxyflavone]"
obs_value = "significantly inhibited"


---

Listed compounds paired with reported IC50
measured_target: human P450 1B1 (Homo sapiens)
Sequence (Q16678 whole entry): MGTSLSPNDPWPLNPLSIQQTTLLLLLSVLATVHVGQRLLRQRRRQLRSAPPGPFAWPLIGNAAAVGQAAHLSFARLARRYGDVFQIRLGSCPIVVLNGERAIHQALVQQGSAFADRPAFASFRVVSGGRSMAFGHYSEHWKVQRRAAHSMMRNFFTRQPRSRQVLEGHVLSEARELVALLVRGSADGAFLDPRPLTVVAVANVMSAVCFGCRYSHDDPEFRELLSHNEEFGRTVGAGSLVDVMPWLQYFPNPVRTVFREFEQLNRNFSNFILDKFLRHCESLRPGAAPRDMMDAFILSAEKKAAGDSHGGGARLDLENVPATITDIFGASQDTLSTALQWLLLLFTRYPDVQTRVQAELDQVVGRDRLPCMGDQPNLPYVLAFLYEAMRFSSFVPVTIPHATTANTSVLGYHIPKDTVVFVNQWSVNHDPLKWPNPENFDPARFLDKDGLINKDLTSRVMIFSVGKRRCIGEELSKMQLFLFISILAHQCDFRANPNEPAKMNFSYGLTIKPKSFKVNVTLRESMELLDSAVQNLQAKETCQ
assay_text: Inhibition of P450 1B1-dependent EROD activity
Format: biochemical
measurement_label: IC50 (nM)

[[record]]
compound = "COc1ccc(-c2coc3cc(O)cc(O)c3c2=O)cc1 [4’M57DHIsoF, 4’-methoxy-5,7-dihydroxyisoflavone]"
comparison_symbol = "="
obs_value = 700

[[record]]
compound = "O=c1cc(-c2ccccc2)oc2ccc3ccccc3c12"
comparison_symbol = "="
obs_value = 17

[[record]]
compound = "COc1ccc(-c2cc(=O)c3ccc(O)c(O)c3o2)cc1OC [3’4’DM78DHF, 3’,4’-dimethoxy-7,8-dihydroxyflavone]"
comparison_symbol = ">"
obs_value = 100000


---

measured_target: human P450 1A1 (Homo sapiens, UniProt P04798)
Sequence (P04798 1-512): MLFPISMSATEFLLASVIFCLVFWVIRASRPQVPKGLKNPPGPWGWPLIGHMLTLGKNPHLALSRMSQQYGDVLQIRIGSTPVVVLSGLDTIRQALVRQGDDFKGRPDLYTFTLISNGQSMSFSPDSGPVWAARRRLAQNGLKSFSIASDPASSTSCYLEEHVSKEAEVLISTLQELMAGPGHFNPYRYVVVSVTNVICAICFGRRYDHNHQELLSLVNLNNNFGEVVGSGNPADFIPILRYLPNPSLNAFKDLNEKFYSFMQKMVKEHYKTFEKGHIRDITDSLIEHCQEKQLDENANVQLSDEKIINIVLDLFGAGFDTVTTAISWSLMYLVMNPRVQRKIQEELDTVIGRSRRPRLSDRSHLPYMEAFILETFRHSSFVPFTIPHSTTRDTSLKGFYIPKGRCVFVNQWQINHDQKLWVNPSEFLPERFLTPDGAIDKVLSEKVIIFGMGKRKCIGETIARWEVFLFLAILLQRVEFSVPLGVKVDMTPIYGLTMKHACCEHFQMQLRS
Please assign not fulfilled whenever IC50 is at or above 1000 nM, and fulfilled whenever it is below.

[[record]]
compound = "COc1ccc(-c2cc(=O)c3c(O)cc(O)cc3o2)cc1OC [3’4’DM57DHF, 3’4’-dimethoxy-5,7-dihydroxyflavone]"
category = "fulfilled"

[[record]]
compound = "COc1cccc(-c2cc(=O)c3c(O)cc(O)cc3o2)c1 [3’M57DHF, 3’-methoxy-5,7-dihydroxyflavone]"
category = "not fulfilled"

[[record]]
compound = "COc1ccc(-c2cc(=O)c3ccc(O)c(O)c3o2)cc1OC [3’4’DM78DHF, 3’,4’-dimethoxy-7,8-dihydroxyflavone]"
category = "not fulfilled"

[[record]]
compound = "COc1ccccc1-c1cc(=O)c2c(O)cc(O)cc2o1 [2’M57DHF, 2’-methoxy-5,7-dihydroxyflavone]"
category = "not fulfilled"

